# Measured Target: CDK7/cyclinH/MAT1 trimeric complex (Homo sapiens, UniProt P50613)
# Sequence (P50613 whole entry): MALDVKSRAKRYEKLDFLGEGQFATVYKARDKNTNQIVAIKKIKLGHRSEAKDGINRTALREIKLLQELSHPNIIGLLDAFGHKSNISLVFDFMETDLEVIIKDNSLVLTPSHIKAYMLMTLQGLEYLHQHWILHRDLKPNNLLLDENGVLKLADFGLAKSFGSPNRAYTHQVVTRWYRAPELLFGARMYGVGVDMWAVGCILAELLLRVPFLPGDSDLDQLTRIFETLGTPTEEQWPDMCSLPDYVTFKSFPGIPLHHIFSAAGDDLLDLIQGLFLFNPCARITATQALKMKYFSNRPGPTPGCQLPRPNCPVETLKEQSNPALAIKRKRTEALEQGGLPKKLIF
# Sequence (P51946 whole entry partner): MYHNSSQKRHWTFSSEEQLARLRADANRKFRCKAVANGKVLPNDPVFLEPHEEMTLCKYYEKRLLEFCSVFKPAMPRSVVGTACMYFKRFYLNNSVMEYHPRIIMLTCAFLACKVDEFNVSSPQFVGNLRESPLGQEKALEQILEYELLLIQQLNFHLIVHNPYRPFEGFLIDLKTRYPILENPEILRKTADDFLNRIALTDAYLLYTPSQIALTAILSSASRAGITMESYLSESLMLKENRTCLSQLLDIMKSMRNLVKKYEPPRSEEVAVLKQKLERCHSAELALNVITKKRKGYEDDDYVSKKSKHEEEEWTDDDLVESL
# Sequence (P51948 whole entry partner): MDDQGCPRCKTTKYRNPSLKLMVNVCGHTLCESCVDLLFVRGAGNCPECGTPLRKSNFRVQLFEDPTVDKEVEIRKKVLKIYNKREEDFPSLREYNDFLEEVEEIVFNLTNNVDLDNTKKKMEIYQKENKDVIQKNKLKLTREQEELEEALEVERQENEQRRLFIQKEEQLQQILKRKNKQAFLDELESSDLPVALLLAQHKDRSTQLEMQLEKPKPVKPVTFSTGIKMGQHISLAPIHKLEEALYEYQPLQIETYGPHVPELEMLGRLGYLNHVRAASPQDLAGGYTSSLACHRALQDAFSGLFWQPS
# Assay Overview: In vitro CDK7 assay, potency of irreversible covalent inhibitors (kinact/KI), coupled PK/LDH ADP readout at 340 nm
# Run Parameters: CDK7 (20 nM enz.) (KI, μM), 20 nM enzyme
Experimental Endpoint: Ki (µM)

compound="CC#CC(=O)N1CC(N2CCC(c3cc4c(c(C)n3)O[C@H](C)c3c(N5CCOCC5)ccnc3N4)CC2)C1 (single isomer, unassigned) [Compound 510]" reported_result=0.052
compound="CC#CC(=O)N1CCC(N2CC(c3cc4c(c(C#N)n3)O[C@@H](C)c3c(C5CCOCC5)ccnc3N4)C2)CC1 (single isomer, unassigned) [Compound 518]" reported_result=0.0075
compound="C=CC(=O)N1CC[C@H](N2CC(c3cc4c(c(C5CC5)n3)O[C@H](C)c3c(N5CCOCC5)ccnc3N4)C2)C1 (single isomer, unassigned) [Compound 463]" reported_result=0.423

* * *

# Measured Target: CDK7/cyclinH/MAT1 trimeric complex (Homo sapiens, UniProt P50613)
# Assay Overview: In vitro CDK7 assay, potency of irreversible covalent inhibitors (kinact/KI), coupled PK/LDH ADP readout at 340 nm
# Run Parameters: CDK7 (20 nM enz.) (KI, μM), 20 nM enzyme
Experimental Endpoint: Ki (µM)

compound=C=CC(=O)N1CCC(N2CCC(c3ccc4c(c3)Nc3nccc(N5CCS(=N)(=O)CC5)c3CO4)CC2)CC1 value_units=µM reported_result=0.39
compound=C=CC(=O)N1CC(n2cc(-c3cc4c(c(C)n3)OCc3c(N5CCOCC5)ccnc3N4)cn2)C1 value_units=µM reported_result=0.0398
compound="C=CC(=O)N1CC(N2CCC(c3cc(C#N)c4c(c3)Nc3nccc(N5CCOCC5)c3[C@H](C)O4)CC2)C1 (single isomer, unassigned)" value_units=µM reported_result=4.52

* * *

# Measured Target: CDK7/cyclinH/MAT1 trimeric complex (Homo sapiens, UniProt P50613)
# Assay Overview: In vitro CDK7 assay, potency of irreversible covalent inhibitors (kinact/KI), coupled PK/LDH ADP readout at 340 nm
# Run Parameters: CDK7 (20 nM enz.) (KI, μM), 20 nM enzyme
Experimental Endpoint: Ki (µM)

compound="C=CC(=O)N1CC(N2CCC(c3cc4c(cn3)O[C@H](C)c3c(N5CCOCC5)ccnc3N4)CC2)C1 (single isomer, unassigned) [Compound 263]" reported_result=0.168
compound="C=CC(=O)N1CC(N2CC[C@@H](c3ccc4c(c3)Nc3nccc(N5CCOCC5)c3CO4)[C@H](O)C2)C1 (mixture of isomers) [Compound 72]" reported_result=0.412
compound="C=CC(=O)N1CC(N2CCC(c3cc4c(c(C(=O)NC)c3)OCc3c(C5CCOCC5)ccnc3N4)CC2)C1 [Compound 135]" reported_result=0.0578
compound="CC#CC(=O)N1CCC(N2CC(c3cc4c(c(C#N)n3)O[C@H](C)c3c(C5CCOCC5)ccnc3N4)C2)CC1 (single isomer, unassigned) [Compound 517]" reported_result=2.91
compound="CC#CC(=O)N1CC(N2CC[C@H](c3cc4c(c(C)n3)O[C@@H](C)c3c(N5CCOCC5)ccnc3N4)N(C)CC2)C1 (single isomer, unassigned) [Compound 528]" reported_result=0.0976
compound="CC#CC(=O)N1CC[C@@H](N2CCC(c3cc4c(c(C)n3)OCc3c(-c5cnn(C)c5)ccnc3N4)CC2)C1 (single isomer, unassigned) [Compound 299]" reported_result=0.0959
compound="C=CC(=O)N1CC(c2ncc(-c3cc(C)c4c(c3)Nc3nccc(N5CCS(=O)(=O)CC5)c3CO4)cn2)C1 [Compound 108]" reported_result=0.57
compound="C=C(F)C(=O)N1CC(N2CCC(c3ccc4c(c3)Nc3nccc(C5CCOCC5)c3CO4)CC2)C1 [Compound 188]" reported_result=0.507
compound="CC#CC(=O)N1CC[C@H](N2CC(c3cc4c(c(C5CC5)n3)O[C@H](C)c3c(N5CCOCC5)ccnc3N4)C2)C1 (single isomer, unassigned) [Compound 471]" reported_result=3.64
compound="C#CCOc1cc(C(=O)Nc2ccc3c(c2)Nc2nccc(C4CCOCC4)c2CO3)ccc1NC(=O)C=C [Compound 8]" reported_result=0.0321
compound="CC#CC(=O)N1CC(N2CC[C@H](c3cc4c(c(C)n3)OCc3c(N5CCOCC5)ccnc3N4)C2)C1 (single isomer, unassigned) [Compound 387]" reported_result=0.451
compound="CC#CC(=O)N1CC(N2CCC(c3cc4c(c(C5CC5)n3)OCc3c(N5CCOCC5)ccnc3N4)CC2)C1 [Compound 403]" reported_result=0.0766

* * *

# Measured Target: CDK7/cyclinH/MAT1 trimeric complex (Homo sapiens, UniProt P50613)
# Assay Overview: In vitro CDK7 assay, potency of irreversible covalent inhibitors (kinact/KI), coupled PK/LDH ADP readout at 340 nm
# Run Parameters: CDK7 (20 nM enz.) (KI, μM), 20 nM enzyme
# label = label 1 if Ki < 0.2 µM else label 0

compound="C=CC(=O)N1CC[C@H](N2CC(c3cc(C)c4c(c3)Nc3nccc(N5CCOCC5)c3CO4)C2)C1 (single isomer, unassigned) [Compound 150]" measured_target="CDK7/cyclinH/MAT1 trimeric complex (Homo sapiens, UniProt P50613)" answer_label="label 1"
compound=C=CC(=O)N1CC(N2CCC(c3cc(F)c4c(c3)Nc3nccc(N5CCS(=O)(=O)CC5)c3CO4)CC2)C1 measured_target="CDK7/cyclinH/MAT1 trimeric complex (Homo sapiens, UniProt P50613)" answer_label="label 1"
compound="C=CC(=O)N1CCC(N2CC(c3cc4c(c(C)n3)OCc3c(-c5cnn(C)c5)ccnc3N4)C2)CC1 [Compound 316]" measured_target="CDK7/cyclinH/MAT1 trimeric complex (Homo sapiens, UniProt P50613)" answer_label="label 1"
compound=CC#CC(=O)N1CC(N2CCC(c3ccc4c(c3)Nc3nccc(C5CCOCC5)c3CO4)CC2)C1 measured_target="CDK7/cyclinH/MAT1 trimeric complex (Homo sapiens, UniProt P50613)" answer_label="label 1"
compound="C=CC(=O)N1CC[C@@H](N2CC(c3cc4c(c(C5CC5)n3)OCc3c(N5CCOCC5)ccnc3N4)C2)C1 (single isomer, unassigned) [Compound 427]" measured_target="CDK7/cyclinH/MAT1 trimeric complex (Homo sapiens, UniProt P50613)" answer_label="label 1"
compound=C=CC(=O)N1CC(c2nc(C)c(-c3cc(C)c4c(c3)Nc3nccc(C5CCOCC5)c3CO4)c(C)n2)C1 measured_target="CDK7/cyclinH/MAT1 trimeric complex (Homo sapiens, UniProt P50613)" answer_label="label 1"
compound=C=CC(=O)N1CC(N2CCC(c3cc4c(cc3CO)OCc3c(N5CCOCC5)ccnc3N4)CC2)C1 measured_target="CDK7/cyclinH/MAT1 trimeric complex (Homo sapiens, UniProt P50613)" answer_label="label 0"
compound="CC#CC(=O)N1CC[C@H](N2CC(c3cc(C)c4c(c3)Nc3nccc(N5CCOCC5)c3[C@@H](C)O4)C2)C1 (single isomer, unassigned)" measured_target="CDK7/cyclinH/MAT1 trimeric complex (Homo sapiens, UniProt P50613)" answer_label="label 1"
compound="CC#CC(=O)N1CC[C@@H](N2CC(c3cc4c(c(C5CC5)n3)OCc3c(N5CCOCC5)ccnc3N4)C2)C1 (single isomer, unassigned)" measured_target="CDK7/cyclinH/MAT1 trimeric complex (Homo sapiens, UniProt P50613)" answer_label="label 1"
compound="C=CC(=O)N1CC(N2CCC(c3cc4c(c(C)n3)O[C@@H](C)c3c(C5CCOCC5)ccnc3N4)CC2)C1 (single isomer, unassigned) [Compound 247]" measured_target="CDK7/cyclinH/MAT1 trimeric complex (Homo sapiens, UniProt P50613)" answer_label="label 0"
compound="C#Cc1cc2c(cc1C1CCN(C3CN(C(=O)C=C)C3)CC1)Nc1nccc(N3CCOCC3)c1C(C)O2 (stereo not shown)" measured_target="CDK7/cyclinH/MAT1 trimeric complex (Homo sapiens, UniProt P50613)" answer_label="label 1"
compound=C=CC(=O)N1CCC(N2CCN(c3ccc4c(c3)Nc3nccc(N5CCOCC5)c3CO4)CC2)CC1 measured_target="CDK7/cyclinH/MAT1 trimeric complex (Homo sapiens, UniProt P50613)" answer_label="label 0"
compound=CC#CC(=O)N1CCC(N2CC(c3cc4c(c(C#N)n3)OCc3c(N5CCOCC5)ccnc3N4)C2)CC1 measured_target="CDK7/cyclinH/MAT1 trimeric complex (Homo sapiens, UniProt P50613)" answer_label="label 1"

* * *

Entries and their kinact values follow.
# Measured Target: CDK7/cyclinH/MAT1 trimeric complex (Homo sapiens, UniProt P50613)
# Assay Overview: In vitro CDK7 assay, potency of irreversible covalent inhibitors (kinact/KI), coupled PK/LDH ADP readout at 340 nm
# Run Parameters: read-out: CDK7 (20 nM enz.) (kinact, s^−1), 20 nM enzyme
Experimental Endpoint: kinact (s⁻¹)

molecule=CC#CC(=O)N1CC(N2CC(c3cc4c(c(C5CC5)n3)OCc3c(N5CCOCC5)ccnc3N4)C2)C1 value_units=s⁻¹ reported_result=6.19e-05
molecule="CC#CC(=O)N1CC(N2CC[C@@H](c3cc4c(c(C)n3)O[C@H](C)c3c(N5CCOCC5)ccnc3N4)N(C)CC2)C1 (single isomer, unassigned)" value_units=s⁻¹ reported_result=1.58e-05
molecule="CC#CC(=O)N1CCC(N2CC(c3cc4c(c(C#N)n3)O[C@H](C)c3c(C5CCOCC5)ccnc3N4)C2)CC1 (single isomer, unassigned)" value_units=s⁻¹ reported_result=4.23e-05
molecule=C=CC(=O)N1CC(N2CCC(c3ccc4c(c3)Nc3nccc(-c5cnn(C)c5)c3C(C)(C)O4)CC2)C1 value_units=s⁻¹ reported_result=4.68e-05
molecule=C=CC(=O)N1CCC2(CC1)CC(Cc1ccc3c(c1)Nc1nccc(C4CCOCC4)c1CO3)C2 value_units=s⁻¹ reported_result=1.43e-05
molecule="C=CC(=O)N1CC[C@H](N2CCC(c3ccc4c(c3)Nc3nccc(N5CCOCC5)c3CO4)CC2)C1 (single isomer, unassigned)" value_units=s⁻¹ reported_result=6.91e-05
